This section presents molecules with their documented TGI values.
Test system: NCI-H522 lung
Assay: NCI tumour cell line growth inhibition, 48 h
metric.name: TGI

In [3]: df
Out[3]:
                                   molecule  readout_value
0  CC(C)(CCC(C)(C)N1OC1c1ccccc1)N1OC1c1ccccc1 (stereo unspecified)        22.2 µM
1  C=CCc1cc(Nc2c3ccc(Cl)cc3nc3ccc(OC)cc23)cc(CN(CC)CC)c1O        5.96 µM
2    CCCCCCCCCCCC[N+](CCCCCCCCCCCC)=C1SCCS1        19.5 µM
3  CC[C@@]1(O)C(=O)OCc2c1cc1n(c2=O)Cc2c-1nc1ccccc1c2/C=N\NC(=O)C(N)CCSC (stereo partly specified)        2.02 µM
4  N#CCCC1(CCC#N)CCCCCCCCC(CCC#N)(CCC#N)C(O)C1O (stereo unspecified)       > 100 µM
5  CCCn1c(=O)c(N2CCN(c3ccccc3)CC2)nc2sc3ccccc3c21       > 100 µM

====

Reported TGI is given for each of the following molecules.
System: UACC-257 melanoma
Assay: NCI tumour cell line growth inhibition, 48 h
metric.name: TGI

>>> print(df.to_string())
                                   molecule  metric_name  readout_value
0                  Cc1[nH]nc(-c2ccon2)c1N=O          TGI        31.7 µM
1  COc1cc2cc(Oc3ccc(NC(=O)c4ccc(Cl)c(Cl)c4)cc3)c(C)nc2cc1OC          TGI       > 100 µM
2     COc1ccc(C(=O)/C=C/c2ccc(OCC#N)cc2)cc1          TGI       > 100 µM
3  N#CC1(C#N)C(c2ccccc2)C=CC12OCCCO2 (stereo not given)          TGI       > 100 µM
4  CCOC(=O)c1c[nH]c2ccc3c(c2c1=O)S(=O)(=O)CC3 (tested in a mixture with another compound)          TGI       > 100 µM
5  CC(C)(C)c1cc2nc(c1)C(C(F)(F)F)(C(F)(F)F)OB(Br)OC2(C(F)(F)F)C(F)(F)F          TGI       0.188 µM
6  COc1cc(Oc2nc3ccc(C(F)(F)F)cc3nc2-c2ccccc2)cc(OC)c1OC          TGI       > 100 µM
7  COc1ccc(-c2cc(=O)c3c(O)cccc3o2)c(OC)c1OC          TGI       > 100 µM
8  COc1ccc(Nc2ccc([N+](=O)[O-])cc2[N+](=O)[O-])cc1CN(CCCl)CCCl          TGI        34.2 µM
9      O=C(Nc1ccccc1OC(=O)c1ccccc1)c1ccccc1          TGI       > 100 µM

====

Tested on: SK-OV-3 ovarian
Assay: NCI tumour cell line growth inhibition, 48 h
metric.name: GI50

>>> print(df.to_string())
                                   molecule  readout_value
0  COc1cc2c(cc1F)C(c1ccccc1Cl)=Nc1c(n[nH]c1C)N2        1590 nM
1  CC1C=CC(OC(=O)C(C)(O)CCC(O)(C(=O)OC2CC(O)C(C(C)C)CC2(C)O)C(C)C)(C(C)C)CC1 (stereo not given)         799 nM
2  COc1ccc2c(-c3ccnc(Nc4cccc(OC(F)(F)F)c4)n3)cnn2n1        1190 nM
3  CC1c2ccccc2CCN1c1ccc(CO)c(Cl)c1 (stereo not given)        1610 nM
4  O=C(NNS(=O)(=O)c1ccc(Cl)cc1Cl)c1cccnc1Nc1ccc(Cl)cc1       17100 nM

Where these numbers come from: PubChem BioAssay (NCI)
